Target Of Assay: T1, Soluble CD28-Ig (extracellular domain of human CD28 fused to the Fc portion of human IgG1) (human, UniProt P10747 19-152, biotin-conjugated (NHS-biotin) in the FACS binding assays)
T1 construct: extracellular domain; bought from R&D Systems; also called sCD28-Ig; CD28-Ig Fc; not shown: Fc portion of human IgG1
Assay Procedure: competitive FACS on transfected cells, biotin-sCD28-Ig with FITC-sCTLA-4-Ig; grade 0-2 of CD28/CTLA-4 ratio vs WT hB7-1
Property Name: Binding Score
Number, no unit, nothing else.

Binder	Binding Score
Round 2 CD28E9-6 (ligand) ITPKSVTKRVKETVMLSCDYNTSTEELTSLRIYWQKDSKMVLAILPGKVQVWPEYKNRTITDMNDNPRIVILALRLSDKGTYTCVIQKPDLKGAYKLEHLASVRLMIRADFPVPTINDLGNPSPNIRRLICSTSGGFPRPHLYWLENGEELNATNTTVSQDPGTELYMISSELDFNVTNNHSIVCLIKYGELSVSQIFPWSKPKQEPPIDQLPFWVIIPVSGALVLTAVVLYCLACRHVARWKRTRRNEETVGTERLSPIYLGSAQSSG	0

In the following, a different binder is considered.
Query string: Query Binding Score for Round 2 CD28F10-2 (ligand) ITPKSVTKRVKETVMLSCDYNTSTEELTSLRIYWQKDSKMVLAILPGKVQVWPEYKNRTITDMNDNPRIVILALRLSDSGTYTCVIQKPDLKGAYKLEHLTSVRLMIRADFPVPSITDIGHPAPNVKRIRCSASGDFPEPRLAWMEDGEELNAVNTTVDQDLDTELYSVSSELDFNVTNNHSIVCLIKYGELSVSQIFPWSKPKQEPPIDQLPFWVIIPVSGALVLTAVVLYCLACRHVARWKRTRRNEETVGTERLSPIYLGSAQSSG
Result string: 1
